Target: T1, recombinant human IGSF8 extracellular domain tagged by a human Fc region (IGSF8-hFc) (human, UniProt Q969P0 28-579, biotin label in Examples 17, 18 and 28 (site not given))
T1 construct: also called IGSF8-Fc fusion protein; IGSF8-hFc-biotin; not shown: human Fc region
T1 sequence: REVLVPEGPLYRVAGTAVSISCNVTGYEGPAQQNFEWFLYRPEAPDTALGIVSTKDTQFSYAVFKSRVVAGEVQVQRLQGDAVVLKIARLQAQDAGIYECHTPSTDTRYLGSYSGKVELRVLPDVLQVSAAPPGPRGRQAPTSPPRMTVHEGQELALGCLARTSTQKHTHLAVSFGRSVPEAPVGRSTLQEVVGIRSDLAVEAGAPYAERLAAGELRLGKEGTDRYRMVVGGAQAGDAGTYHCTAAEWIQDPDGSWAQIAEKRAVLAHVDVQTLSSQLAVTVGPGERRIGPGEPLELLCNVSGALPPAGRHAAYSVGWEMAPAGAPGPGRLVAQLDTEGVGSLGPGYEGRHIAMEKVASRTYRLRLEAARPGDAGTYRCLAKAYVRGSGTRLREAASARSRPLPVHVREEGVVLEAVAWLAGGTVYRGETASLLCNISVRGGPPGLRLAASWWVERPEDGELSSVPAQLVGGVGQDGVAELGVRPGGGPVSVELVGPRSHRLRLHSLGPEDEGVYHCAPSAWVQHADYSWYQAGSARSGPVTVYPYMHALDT
Experiment: SPR, Ab captured
# Lookup of reported kon keyed by entry
Your answer should be a plain number; it is taken to be in M⁻¹ s⁻¹.

Examples with answers:
INSERT INTO measurements (binder, quantity_name, observed_result) VALUES
  ('L1-05 (antibody, V domains shown) VH: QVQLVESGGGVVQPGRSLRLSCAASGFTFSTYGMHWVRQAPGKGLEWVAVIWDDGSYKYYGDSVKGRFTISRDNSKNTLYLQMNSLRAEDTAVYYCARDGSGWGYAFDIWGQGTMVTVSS VL: DIQLTQSPSSLSASVGDRVTITCQASQDITKGLNWYQHKPGKAPNPLVFDAANLETGVPPRFSATGSGTDFSLTITSLQPEDFATYYCQQYDSFPYTFGQGTRLDIK', 'kon', 241000),
  ('L2-02 (antibody, V domains shown) VH: EVQLVESGGGLEQPGGSLRLSCAGSGFTFRDYAMTWVRQAPGKGLEWVSSISGSGGNTYYADSVKGRFTISRDNSKNTLYLQMNSLRAEDTAIYYCARGEYSSGWPSWFDPWGQGTLVTVSS VL: EIVLTQSPSSLSASVGDRVTISCRASRTVGTFLNWYQQRPGKPPQALILHTSILEGGVSSRFSGAGSGTEFSLTISSLQPEDIGTYYCQQSHDVPRTFGQGTKVDLR', 'kon', 27100);

Ask | Return kon for the following binder: L2VL-S52V (antibody, V domains shown) VH: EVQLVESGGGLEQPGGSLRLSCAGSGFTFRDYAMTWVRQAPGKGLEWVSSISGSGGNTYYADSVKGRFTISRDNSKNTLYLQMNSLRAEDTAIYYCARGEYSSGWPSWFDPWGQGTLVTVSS VL: EIVLTQSPSSLSASVGDRVTISCRASRTVGTFLNWYQQRPGKPPQALILGVVILEGGVSSRFSGAGSGTEFSLTISSLQPEDIGTYYCQQSHDVPRTFGQGTKVDLR
Reply | 12500
